# Tested target: Histone-lysine N-methyltransferase EHMT2 (Homo sapiens) (UniProt Q96KQ7)
# Sequence (Q96KQ7 913-1193 limits assumed): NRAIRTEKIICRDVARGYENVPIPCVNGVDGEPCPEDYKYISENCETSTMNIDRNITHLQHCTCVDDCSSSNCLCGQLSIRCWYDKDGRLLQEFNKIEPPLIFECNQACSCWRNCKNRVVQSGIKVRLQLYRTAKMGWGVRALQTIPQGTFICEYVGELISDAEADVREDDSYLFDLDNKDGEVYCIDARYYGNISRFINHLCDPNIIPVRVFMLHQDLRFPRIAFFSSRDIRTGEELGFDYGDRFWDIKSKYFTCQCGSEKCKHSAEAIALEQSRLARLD
# Assay notes: qHTS Assay for Inhibitors of Histone Lysine Methyltransferase G9a; also: nearly all actives have a fitted effect of over 75% in size
# Particulars: G9a H3K9 monomethylation, AlphaScreen, 2 h; series mostly up to 59 µM
The whole screen tested about 350,000 compounds, of which about 31,000 (8.9%) were called active. Another 15% or so got no clear call; they are omitted. Calls follow the shape of the dose curve; as a rule, active = well fitted inhibition curve with a large enough effect; inconclusive = small, poorly fitted or top-dose-only effect; inactive = no such curve, though single readings can be large or run the other way. This excerpt belongs to a sample that is enriched for actives.
Use one of these outcomes when replying: t = active, f = inactive

[in] Please indicate how the test categorized Cc1cccc(NC(=O)c2cccc(S(=O)(=O)N3CCCC3)c2)n1 .
[out] f

[in] Please indicate how the test categorized C[C@H](NC(=O)[C@@H]1Cc2ccccc2CN1C(=O)OC(C)(C)C)C(=O)NC1CCCC1 .
[out] f

[in] Please indicate how the test categorized COc1ccc(C2C3=C(CCCC3=O)N(CC(=O)O)C3=C2C(=O)CCC3)cc1 .
[out] f

[in] Please indicate how the test categorized O=C1CCCc2cc(S(=O)(=O)N3CCCC(C(=O)NCc4ccccc4)C3)ccc2N1 (centres undefined) .
[out] f

[in] Please indicate how the test categorized O=C(NCc1ccncc1)C1CCCN(S(=O)(=O)c2ccc(Br)cc2)C1 (centres undefined) .
[out] f

[in] Please indicate how the test categorized CCCN(C(=O)Cn1cc(S(=O)(=O)N2CCN(c3ccccc3F)CC2)c2ccccc2c1=O)c1cccc(C)c1 .
[out] f

[in] Please indicate how the test categorized CCOC(=O)c1cc(NC(=O)c2ccc(F)cc2)c(=O)n2c1oc1ccccc12 .
[out] f

[in] Please indicate how the test categorized Cc1ccc(NC(=S)N(CCCN2CCC(C)CC2)Cc2ccco2)cc1 .
[out] f

[in] Please indicate how the test categorized CCOC(=O)c1ccc(NC2=CC(c3ccc(OCC)cc3)N(c3ccc(C(=O)OCC)cc3)C2=O)cc1 (centres undefined) .
[out] f

[in] Please indicate how the test categorized CC1CCCN(C(=O)c2ccc3c(c2)C(=O)N(CCC2=CCCCC2)C3=O)C1 (centres undefined) .
[out] t

[in] Please indicate how the test categorized Cc1cccc(C(=O)NCCc2nc3ccccc3n2Cc2ccccc2Cl)c1 .
[out] f

[in] Please indicate how the test categorized O=C(Cc1cccs1)Nc1nnc(SCc2ccc(F)cc2)s1 .
[out] f

[in] Please indicate how the test categorized C=CCNc1nnc(SCC(=O)N2CCCCC2)c2ccccc12 .
[out] t

[in] Please indicate how the test categorized COc1ccc(OCC(=O)OCCN(C)C)cc1 .
[out] f

[in] Please indicate how the test categorized Cc1ccc(C(=O)N/C(=C\c2cn(S(=O)(=O)N(C)C)c3ccccc23)C(=O)N2CCCC2)cc1 .
[out] f

[in] Please indicate how the test categorized Cc1ccc(S(=O)(=O)N2CCCCC2)cc1C(=O)N1CCN(CCO)CC1 .
[out] t

[in] Please indicate how the test categorized C=CCN1C(=O)c2ccc(C(=O)N3CCC(C(=O)OCC)CC3)cc2C1=O .
[out] f

[in] Please indicate how the test categorized C=CCNc1nnc(C)c2ccccc12 .
[out] f

[in] Please indicate how the test categorized CC1=C(C(=O)OCc2ccc(C)cc2)C(c2ccccc2Cl)CC(=O)N1 (centres undefined) .
[out] f

[in] Please indicate how the test categorized Cc1ccc2nc(COc3cccc(NC(=O)c4ccccc4Cl)c3)cc(=O)n2c1 .
[out] f

[in] Please indicate how the test categorized COc1ccc2c(c1)c(=O)c(S(=O)(=O)c1ccc(F)cc1)cn2CC(=O)Nc1ccc(C)cc1C .
[out] f

[in] Please indicate how the test categorized CCOC(=O)c1ccc(NC(=S)N2CCN(c3ccccn3)CC2)cc1 .
[out] f

[in] Please indicate how the test categorized COc1ccc(CCNC(=O)CN(C)S(=O)(=O)c2ccc3nc(C)sc3c2)cc1OC .
[out] f

[in] Please indicate how the test categorized Cc1ccc(NC(=O)CSc2nc3c([nH]c4ccccc43)c(=O)n2-c2ccccc2)cc1Cl .
[out] f

[in] Please indicate how the test categorized Cc1ccc(S(=O)(=O)N2CCN(C)CC2)cc1C(=O)NC1CCCCC1 .
[out] f

[in] Please indicate how the test categorized Cc1nc2nc(SCC(=O)NC3CCC(C)CC3)nn2c(C)c1Cc1ccccc1Cl (centres undefined) .
[out] f

[in] Please indicate how the test categorized O=C(O)c1ccc(/C=N/NC(=O)c2ccc(Br)cc2)cc1 .
[out] f

[in] Please indicate how the test categorized Cc1ccc(OCc2n[nH]c(=S)n2-c2ccc(C)cc2)cc1 .
[out] f

[in] Please indicate how the test categorized Cc1ccc(OCc2n[nH]c(=S)n2-c2ccccc2)cc1 .
[out] t

[in] Please indicate how the test categorized COc1ccc(CNC(=O)c2cc3cccc(OC)c3oc2=O)cc1 .
[out] f

[in] Please indicate how the test categorized CC(=O)N1Cc2ccccc2CC1C(=O)O (centres undefined) .
[out] t

[in] Please indicate how the test categorized CC1=C(C)CC2C(=O)N(c3cccc4ccccc34)C(=O)C2C1 (centres undefined) .
[out] t

[in] Please indicate how the test categorized CC(C)c1ccc(NC(=O)Cn2ncc3ccccc32)cc1 .
[out] f

[in] Please indicate how the test categorized S=c1[nH]nc(COc2ccccc2)n1-c1ccccc1 .
[out] t

[in] Please indicate how the test categorized COc1cc(C(=O)N/C(=C\c2cn(C)c3ccccc23)C(=O)N2CCOCC2)cc(OC)c1OC .
[out] f

[in] Please indicate how the test categorized Cc1ccc(NCc2n[nH]c(=S)n2-c2ccccc2)cc1Cl .
[out] t

[in] Please indicate how the test categorized CCc1ccccc1NC(=O)CSc1nnc(-c2ccccc2)c(-c2ccccc2)n1 .
[out] f

[in] Please indicate how the test categorized O=C1c2ccccc2C(=O)N1c1cccc2ccccc12 .
[out] f

[in] Please indicate how the test categorized COc1ccc(Cc2nnc(NC(=O)Cc3cccs3)s2)cc1 .
[out] t

[in] Please indicate how the test categorized CCOC(=O)N1CCN(C(=O)c2cn(C)c3ccc(S(=O)(=O)N4CCCC4)cc3c2=O)CC1 .
[out] f

[in] Please indicate how the test categorized COc1ccc(NC(=O)c2c(C)oc3c2CCCC3)cc1 .
[out] f

[in] Please indicate how the test categorized CCc1nnc(NC(=O)Cc2cccs2)s1 .
[out] f

[in] Please indicate how the test categorized O=c1c(-c2ccccc2Cl)c[nH]n1-c1ccccc1 .
[out] f

[in] Please indicate how the test categorized Cc1cc(=O)oc2c(C)c(OC(C)C(=O)NC3CCN(Cc4ccccc4)CC3)ccc12 (centres undefined) .
[out] f
